Provide the recorded IC50 for the entries that follow.
experimental-system: PDE4D2 (Homo sapiens)
Sequence (Q08499 303-809 limits assumed): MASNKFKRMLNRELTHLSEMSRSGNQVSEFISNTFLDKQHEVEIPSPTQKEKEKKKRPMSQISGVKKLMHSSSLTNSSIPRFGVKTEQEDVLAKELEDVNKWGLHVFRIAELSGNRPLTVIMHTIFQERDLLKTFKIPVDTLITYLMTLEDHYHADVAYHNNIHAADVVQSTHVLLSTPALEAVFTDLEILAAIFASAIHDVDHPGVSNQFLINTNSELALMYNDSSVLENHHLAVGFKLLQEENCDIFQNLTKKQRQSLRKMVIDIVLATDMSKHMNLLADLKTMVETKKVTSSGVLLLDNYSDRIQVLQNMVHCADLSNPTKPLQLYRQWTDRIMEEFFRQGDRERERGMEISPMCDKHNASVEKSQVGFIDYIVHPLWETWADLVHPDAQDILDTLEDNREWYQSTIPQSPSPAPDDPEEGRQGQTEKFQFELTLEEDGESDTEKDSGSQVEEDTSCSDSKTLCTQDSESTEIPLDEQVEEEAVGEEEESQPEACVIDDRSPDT
protocol-summary: PDE isoform selectivity panel: PDE4D2
Report the figure in nM without appending any unit label.

For this molecule ( COc1ccc(OC)c(-c2nnc3n2N=C(c2ccc(OC)c(O[C@@H]4CCOC4)c2)CS3)c1 [Compound 10] ), measured IC50 is 1.9

For this molecule ( COc1ccc(OC)c(-c2nnc3ccc(-c4ccc(OC)c(O[C@@H]5CCOC5)c4)nn23)c1 [Compound 18] ), measured IC50 is 2.1

###

Provide the recorded melting point for the entries that follow.
Report the figure in °C without appending any unit label.

For this compound ( Fc1ccccc1-c1nnc2n1N=C(c1ccc(OC(F)F)c(OCC3CC3)c1)CS2 [Compound 35] ), measured melting point is 183

For this compound ( COc1ccccc1-c1nnc2n1N=C(c1ccc(OC(F)F)c(OCC3CC3)c1)CS2 [Compound 24] ), measured melting point is 163

For this compound ( COc1ccc(C2=Nn3c(nnc3-c3ccccc3Cl)SC2)cc1OCC1CC1 [Compound 29] ), measured melting point is 173
